assay: Cmax in healthy human male at 600 mg, po every 12 hrs by LC/MS/MS analysis; format: ADME, organism-based; set-up: dose 600 mg, route oral; details: in vivo
READOUT TYPE: Cmax (ng/mL)
Quick note: give the figure in ng/mL, leave out the unit.

// query Given CC(=O)NC[C@H]1CN(c2ccc(N3CCOCC3)c(F)c2)C(=O)O1 , respond with its Cmax.
// result 16000

----------
experiment: Cmax in healthy human male at 1000 mg, iv every 12 hrs by LC/MS/MS analysis; format: ADME, organism-based; parameters: dose 1000 mg, route intravenous; settings: in vivo
READOUT TYPE: Cmax

// query Given CN[C@H](CC(C)C)C(=O)N[C@H]1C(=O)N[C@@H](CC(N)=O)C(=O)N[C@H]2C(=O)N[C@H]3C(=O)N[C@H](C(=O)N[C@H](C(=O)O)c4cc(O)cc(O)c4-c4cc3ccc4O)[C@H](O)c3ccc(c(Cl)c3)Oc3cc2cc(c3O[C@@H]2O[C@H](CO)[C@@H](O)[C@H](O)[C@H]2O[C@H]2C[C@](C)(N)[C@H](O)[C@H](C)O2)Oc2ccc(cc2Cl)[C@H]1O , respond with its Cmax.
// result 64 µg/mL
